B1: FBXO39 (parent)
chain: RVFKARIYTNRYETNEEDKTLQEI

- Variants of: B1
- Assay remarks: protein stability index of a GFP-peptide fusion (GPS, HEK-293T) (PSI 1-6); higher = more stable;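 also: lentivirally expressed fusions sorted by FACS into six bins by GFP to DsRed ratio, PSI derived from sequencing read proportions per bin multiplied by bin number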
- Condition set: c terminus: a fixed tail appended
Property: protein stability index

[ask] Please report the recorded protein stability index for I7H .
[reply] 2.54

[ask] Please report the recorded protein stability index for E13I .
[reply] 1.92

[ask] Please report the recorded protein stability index for F3G .
[reply] 4.12

[ask] Please report the recorded protein stability index for K4D .
[reply] 4.08

[ask] Please report the recorded protein stability index for Y12G .
[reply] 3.13

[ask] Please report the recorded protein stability index for R11I .
[reply] 2.46

[ask] Please report the recorded protein stability index for N15S .
[reply] 3.14

[ask] Please report the recorded protein stability index for F3T .
[reply] 4.88

[ask] Please report the recorded protein stability index for Q22W .
[reply] 1.79

[ask] Please report the recorded protein stability index for K4I .
[reply] 1.88

[ask] Please report the recorded protein stability index for V2G .
[reply] 3.69

[ask] Please report the recorded protein stability index for Y8K .
[reply] 3.22

[ask] Please report the recorded protein stability index for E13K .
[reply] 2.4

[ask] Please report the recorded protein stability index for T20S .
[reply] 3.2

[ask] Please report the recorded protein stability index for I24V .
[reply] 3.44

[ask] Please report the recorded protein stability index for R11V .
[reply] 2.18

[ask] Please report the recorded protein stability index for Q22A .
[reply] 3.02

[ask] Please report the recorded protein stability index for R11H .
[reply] 2.34

[ask] Please report the recorded protein stability index for R6Q .
[reply] 3.71

[ask] Please report the recorded protein stability index for A5Y .
[reply] 2.19

[ask] Please report the recorded protein stability index for R1A .
[reply] 2.84

[ask] Please report the recorded protein stability index for V2R .
[reply] 4.24

[ask] Please report the recorded protein stability index for L21T .
[reply] 2.97

[ask] Please report the recorded protein stability index for E17F .
[reply] 1.63

[ask] Please report the recorded protein stability index for Q22V .
[reply] 1.75

[ask] Please report the recorded protein stability index for V2I .
[reply] 2.51

[ask] Please report the recorded protein stability index for E23R .
[reply] 2.05

[ask] Please report the recorded protein stability index for Y12Q .
[reply] 3.88

[ask] Please report the recorded protein stability index for Y8W .
[reply] 2.16

[ask] Please report the recorded protein stability index for T20I .
[reply] 1.76

[ask] Please report the recorded protein stability index for E17K .
[reply] 2.24

[ask] Please report the recorded protein stability index for A5L .
[reply] 3.33

[ask] Please report the recorded protein stability index for N15H .
[reply] 3.27

[ask] Please report the recorded protein stability index for V2Q .
[reply] 3.37

[ask] Please report the recorded protein stability index for F3N .
[reply] 4.76

[ask] Please report the recorded protein stability index for R1L .
[reply] 2.74

[ask] Please report the recorded protein stability index for Y8S .
[reply] 3.13

[ask] Please report the recorded protein stability index for E13M .
[reply] 2.6

[ask] Please report the recorded protein stability index for E17N .
[reply] 1.98

[ask] Please report the recorded protein stability index for E23C .
[reply] 2.13

[ask] Please report the recorded protein stability index for L21D .
[reply] 3.88

[ask] Please report the recorded protein stability index for Y12K .
[reply] 2.99

[ask] Please report the recorded protein stability index for E17W .
[reply] 2.27

[ask] Please report the recorded protein stability index for T9M .
[reply] 3.24

[ask] Please report the recorded protein stability index for K4G .
[reply] 3.59

[ask] Please report the recorded protein stability index for D18P .
[reply] 2.56

[ask] Please report the recorded protein stability index for E16S .
[reply] 2.6

[ask] Please report the recorded protein stability index for E23H .
[reply] 2.74

[ask] Please report the recorded protein stability index for Y12A .
[reply] 3.15

[ask] Please report the recorded protein stability index for R1C .
[reply] 1.7

[ask] Please report the recorded protein stability index for I24W .
[reply] 2.34

[ask] Please report the recorded protein stability index for T9W .
[reply] 1.92

[ask] Please report the recorded protein stability index for N10V .
[reply] 2.15

[ask] Please report the recorded protein stability index for Y12H .
[reply] 2.79

[ask] Please report the recorded protein stability index for A5H .
[reply] 3.04

[ask] Please report the recorded protein stability index for V2M .
[reply] 3.98

[ask] Please report the recorded protein stability index for R6I .
[reply] 1.9

[ask] Please report the recorded protein stability index for R6P .
[reply] 4.08

[ask] Please report the recorded protein stability index for L21H .
[reply] 3.76

[ask] Please report the recorded protein stability index for E23P .
[reply] 2.39

[ask] Please report the recorded protein stability index for Y12M .
[reply] 2.13

[ask] Please report the recorded protein stability index for E16Q .
[reply] 2.08

[ask] Please report the recorded protein stability index for L21M .
[reply] 3.24

[ask] Please report the recorded protein stability index for I7C .
[reply] 2.74

[ask] Please report the recorded protein stability index for I24Y .
[reply] 3.17

[ask] Please report the recorded protein stability index for Q22I .
[reply] 1.4

[ask] Please report the recorded protein stability index for I7P .
[reply] 4.12

[ask] Please report the recorded protein stability index for N10K .
[reply] 3.01

[ask] Please report the recorded protein stability index for E17Y .
[reply] 2.72

[ask] Please report the recorded protein stability index for T9D .
[reply] 3.38

[ask] Please report the recorded protein stability index for L21S .
[reply] 2.93

[ask] Please report the recorded protein stability index for T9K .
[reply] 3.08

[ask] Please report the recorded protein stability index for F3W .
[reply] 2.65

[ask] Please report the recorded protein stability index for T14Y .
[reply] 2.67

[ask] Please report the recorded protein stability index for L21Q .
[reply] 3.18

[ask] Please report the recorded protein stability index for T14I .
[reply] 2.28

[ask] Please report the recorded protein stability index for R11A .
[reply] 2.01

[ask] Please report the recorded protein stability index for E17G .
[reply] 1.4

[ask] Please report the recorded protein stability index for L21R .
[reply] 2.97

[ask] Please report the recorded protein stability index for R1P .
[reply] 4.26

[ask] Please report the recorded protein stability index for E17R .
[reply] 2.43
